- subject of test: GABAA receptor α1β2γ2 (Homo sapiens, UniProt P14867+P18507)
- Construct: expressed in transfected cells; host or cells: Xenopus laevis oocytes injected with cRNA
- Sequence (P14867 28-456, one chain of several): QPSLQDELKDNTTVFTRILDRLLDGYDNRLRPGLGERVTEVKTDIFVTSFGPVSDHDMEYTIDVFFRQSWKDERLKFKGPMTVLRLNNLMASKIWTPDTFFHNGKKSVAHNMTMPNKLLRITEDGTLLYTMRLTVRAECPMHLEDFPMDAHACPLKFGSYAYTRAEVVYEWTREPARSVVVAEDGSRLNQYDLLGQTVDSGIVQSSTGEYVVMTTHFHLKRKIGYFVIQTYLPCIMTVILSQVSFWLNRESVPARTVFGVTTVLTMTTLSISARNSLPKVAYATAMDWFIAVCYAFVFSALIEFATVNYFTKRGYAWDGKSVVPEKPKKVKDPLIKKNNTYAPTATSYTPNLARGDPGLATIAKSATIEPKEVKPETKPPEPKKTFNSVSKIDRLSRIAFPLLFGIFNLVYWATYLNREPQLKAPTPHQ
- Sequence (P47870 25-512 partner limits assumed, one chain of several): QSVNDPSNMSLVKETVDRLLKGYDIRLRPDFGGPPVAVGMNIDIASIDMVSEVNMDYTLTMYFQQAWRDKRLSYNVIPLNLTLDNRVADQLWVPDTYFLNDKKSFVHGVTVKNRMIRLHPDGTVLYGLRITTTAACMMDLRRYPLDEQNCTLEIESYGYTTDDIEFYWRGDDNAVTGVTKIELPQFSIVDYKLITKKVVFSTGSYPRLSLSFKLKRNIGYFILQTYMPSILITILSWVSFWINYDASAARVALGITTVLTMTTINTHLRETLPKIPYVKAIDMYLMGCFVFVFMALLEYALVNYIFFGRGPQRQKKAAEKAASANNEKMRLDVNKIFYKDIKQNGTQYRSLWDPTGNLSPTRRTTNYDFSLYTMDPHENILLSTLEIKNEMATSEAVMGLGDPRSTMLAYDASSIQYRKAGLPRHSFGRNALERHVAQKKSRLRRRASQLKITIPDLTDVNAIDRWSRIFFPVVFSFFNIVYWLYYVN
- measurement notes: Two-electrode voltage-clamp potentiation of GABA EC10 current in Xenopus oocytes, GABAA1
- Type: cell-based
- stated conditions: percentage potentiation of GABA EC10 current divided by that of diazepam
Consider the reported Relative Potentiation for GABAA1 of an entry and match it to a band in 0 = under 0.03, 1 = from 0.03 up to 0.2, 2 = 0.2 and over

INSERT INTO results (substance_smiles, category) VALUES
  ('CCN1Cc2nc3c(-c4ccc(OC)c(F)c4)cccc3c(N)c2C1=O', 0),
  ('COc1ccc(-c2cccc3c(N)c4c(nc23)CN([C@H]2C[C@@H](C)C2)C4=O)c(C)n1', 1),
  ('COc1cnccc1-c1c(F)ccc2c(N)c3c(nc12)CN(C1CCC1)C3=O', 0),
  ('CCCN1Cc2nc3c(-c4ccc(C)nc4F)cccc3c(N)c2C1=O', 2),
  ('CCN1Cc2nc3c(-c4ccc(F)cc4OC)cccc3c(N)c2C1=O', 0);

### Prompt # bin label for COc1ccc(F)c(-c2cccc3c(N)c4c(nc23)CN(C2CC2)C4=O)c1
### Response 1

### Prompt CCCN1Cc2nc3c(-c4cnccc4OC)cccc3c(N)c2C1=O , same question.
### Response 2

### Prompt Another compound to check: CCCN1Cc2nc3c(-c4cc(C)cc(C)c4)cccc3c(N)c2C1=O
### Response 1

### Prompt Please give the result for COc1ccc(-c2c(F)ccc3c(N)c4c(nc23)CN(C2CCC2)C4=O)c(OC)c1 too.
### Response 1

### Prompt Also CCCN1Cc2nc3c(-c4cc(C)cnc4Cl)cccc3c(N)c2C1=O , if possible.
### Response 2

### Prompt // next record CCCN1Cc2nc3c(-c4cccc(OC)c4)cccc3c(N)c2C1=O
### Response 2

###

- subject of test: GABAA receptor α2β3γ2 (Homo sapiens, UniProt P18507+P47869)
- Construct: expressed in transfected cells; host or cells: Xenopus laevis oocytes injected with cRNA
- Sequence (P47869 29-451): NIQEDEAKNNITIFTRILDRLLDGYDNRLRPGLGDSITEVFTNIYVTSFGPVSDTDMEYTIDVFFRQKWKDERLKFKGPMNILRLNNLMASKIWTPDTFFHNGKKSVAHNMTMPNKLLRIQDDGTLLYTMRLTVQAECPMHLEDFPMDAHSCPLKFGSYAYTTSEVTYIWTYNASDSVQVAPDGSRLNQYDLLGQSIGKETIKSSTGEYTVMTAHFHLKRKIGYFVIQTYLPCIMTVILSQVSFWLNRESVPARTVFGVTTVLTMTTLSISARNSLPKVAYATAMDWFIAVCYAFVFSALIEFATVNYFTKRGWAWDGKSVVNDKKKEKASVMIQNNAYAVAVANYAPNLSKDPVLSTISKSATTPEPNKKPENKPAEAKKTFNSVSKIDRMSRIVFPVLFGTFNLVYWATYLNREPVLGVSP
- Sequence (P28472 26-473 partner): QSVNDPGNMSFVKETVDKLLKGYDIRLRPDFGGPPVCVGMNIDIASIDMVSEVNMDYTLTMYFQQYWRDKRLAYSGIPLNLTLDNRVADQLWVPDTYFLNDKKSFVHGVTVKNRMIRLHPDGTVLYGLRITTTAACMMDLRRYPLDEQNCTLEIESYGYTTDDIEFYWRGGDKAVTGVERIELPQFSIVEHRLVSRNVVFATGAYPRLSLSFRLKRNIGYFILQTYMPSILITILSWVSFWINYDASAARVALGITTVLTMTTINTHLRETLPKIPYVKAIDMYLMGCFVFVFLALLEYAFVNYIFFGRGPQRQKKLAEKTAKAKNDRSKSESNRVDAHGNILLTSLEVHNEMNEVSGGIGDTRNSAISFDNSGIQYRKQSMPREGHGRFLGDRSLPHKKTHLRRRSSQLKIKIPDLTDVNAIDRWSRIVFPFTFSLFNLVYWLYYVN
- Sequence (P18507 40-475): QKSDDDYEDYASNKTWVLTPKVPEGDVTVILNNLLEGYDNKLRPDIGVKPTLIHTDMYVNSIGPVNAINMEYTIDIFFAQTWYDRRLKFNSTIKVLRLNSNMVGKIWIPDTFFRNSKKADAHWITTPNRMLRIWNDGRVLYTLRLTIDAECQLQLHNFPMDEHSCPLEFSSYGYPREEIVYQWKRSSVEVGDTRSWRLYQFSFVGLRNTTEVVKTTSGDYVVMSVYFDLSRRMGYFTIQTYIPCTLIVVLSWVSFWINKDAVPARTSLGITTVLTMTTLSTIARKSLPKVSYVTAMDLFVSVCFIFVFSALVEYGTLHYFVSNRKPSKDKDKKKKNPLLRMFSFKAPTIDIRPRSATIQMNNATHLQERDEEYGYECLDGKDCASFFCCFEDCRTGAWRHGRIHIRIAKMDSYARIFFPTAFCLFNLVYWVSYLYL
- measurement notes: Two-electrode voltage-clamp potentiation of GABA EC10 current in Xenopus oocytes, GABAA2
- Format: cell-based
- stated conditions: percentage potentiation of GABA EC10 current divided by that of diazepam
# Relative Potentiation for GABAA2 values compiled below
Please reply with the number alone, leaving off any unit.

### Prompt Reported Relative Potentiation for GABAA2 for Cn1cc(-c2cccc3c(N)c4c(nc23)CN(C2CCC2)C4=O)cn1 : what is it?
### Response 0.18

### Prompt Now the same for COc1cccc(F)c1-c1cccc2c(N)c3c(nc12)CN(C)C3=O [Example 20]
### Response 0.26

### Prompt Next record, please: CCN1Cc2nc3c(-c4ccc(OC)nc4OC)cccc3c(N)c2C1=O [Example 27]
### Response 0.18

### Prompt Next entry: COc1ccc(F)c(-c2c(F)ccc3c(N)c4c(nc23)CN(C2CC2)C4=O)c1F
### Response 0.17

### Prompt Another: COc1ccc(Cl)c(-c2cccc3c(N)c4c(nc23)CN(C2CC2)C4=O)c1
### Response 0.14

###

- subject of test: GABAA2 receptors (α2, β3, γ2 receptor subunits transfected into Sf9 cells) (Homo sapiens, UniProt P18507+P47869)
- Sequence (P47869 29-451): as the sequence (P47869 29-451) above
- Sequence (P28472 26-473 partner): as the sequence (P28472 26-473 partner) above
- Sequence (P18507 40-475): as the sequence (P18507 40-475) above
- measurement notes: GABAA2 Binding Method ([3H]-Flunitrazepam displacement)
- stated conditions: [3H]-Flunitrazepam ~2 nM, α2β3γ2 Sf9 membranes, 1 hr at 4° C.
// classify: if (Ki < 20 nM) 1 else 0

Solved cases below.
INSERT INTO measurements (compound, category) VALUES
  ('CCCN1Cc2nc3c(-c4ccc(OC)cc4OC)c(F)ccc3c(N)c2C1=O', 1),
  ('COc1ccc(CN2Cc3nc4c(-c5cccnc5OC)cccc4c(N)c3C2=O)cc1Cl', 1),
  ('COc1ccc(CN2Cc3nc4c(-c5cc(OC)ccc5OC)cccc4c(N)c3C2=O)cc1', 0),
  ('CCN1Cc2nc3c(-c4cccnc4OC)cccc3c(N)c2C1=O [Example 19]', 0),
  ('Cc1cccc(-c2cccc3c(N)c4c(nc23)C(O)N(C2CCC2)C4=O)n1 (stereo not drawn)', 1);

### Prompt Given CCCN1Cc2nc3c(-c4cccc(F)c4OC)cccc3c(N)c2C1=O , is recorded Ki strictly lower than 20 nM?
### Response 0

### Prompt What about CCCCN1Cc2nc3c(-c4ccc(OC)nc4OC)cccc3c(N)c2C1=O [Example 43] ?
### Response 0

### Prompt Another: COc1cnccc1-c1c(F)ccc2c(N)c3c(nc12)CN(C1CCC1)C3=O
### Response 1

### Prompt Here is the next compound: CCCN1Cc2nc3c(-c4cc(C)cnc4Cl)cccc3c(N)c2C1=O
### Response 1

### Prompt Here is the next compound: CCCN1Cc2nc3c(-c4cc(C)cnc4OC)cccc3c(N)c2C1=O
### Response 1

### Prompt Try this compound next: CCN1Cc2nc3c(-c4cc(C)ccc4OC)cccc3c(N)c2C1=O
### Response 0

### Prompt Now give it for Cc1ccc(-c2c(F)ccc3c(N)c4c(nc23)CN(C2CCC2)C4=O)cn1 too.
### Response 1

### Prompt What do you have for CCCN1Cc2nc3c(-c4cc(F)ccc4F)cccc3c(N)c2C1=O ?
### Response 0

### Prompt Now give it for N#Cc1cc(F)ccc1-c1cccc2c(N)c3c(nc12)CN(C1CCC1)C3=O too.
### Response 1

### Prompt Another: CCCN1Cc2nc3c(-c4cnccc4C)cccc3c(N)c2C1=O
### Response 0

###

- subject of test: GABAA2 receptors (α2, β3, γ2 receptor subunits transfected into Sf9 cells) (Homo sapiens, UniProt P18507+P47869)
- measurement notes: GABAA2 Binding Method ([3H]-Flunitrazepam displacement)
- stated conditions: [3H]-Flunitrazepam ~2 nM, α2β3γ2 Sf9 membranes, 1 hr at 4° C.
# Ki per record follows
The answer is to be given in nM; state only the numeric part.

INSERT INTO measurements (molecule, measure_name, test_value) VALUES
  ('CCCN1Cc2nc3c(-c4cc(OC)ccc4F)cccc3c(N)c2C1=O', 'Ki', 12.5),
  ('COc1ccc(-c2cccc3c(N)c4c(nc23)CN(Cc2ccc(OC)c(OC)c2)C4=O)c(C)n1', 'Ki', 4.7),
  ('CCCN1Cc2nc3c(-c4ccc(OC)cc4OC)cccc3c(N)c2C1=O', 'Ki', 49.8);

Now turn to the next molecule.
### Prompt Consider the molecule COc1ccc(CN2Cc3nc4c(-c5cccnc5F)cccc4c(N)c3C2=O)cc1 and give its measured Ki.
### Response 6.82

###

- subject of test: GABAA receptor α1β2γ2 (Homo sapiens, UniProt P14867+P18507)
- Construct: expressed in transfected cells; host or cells: Xenopus laevis oocytes injected with cRNA
- measurement notes: Two-electrode voltage-clamp potentiation of GABA EC10 current in Xenopus oocytes, GABAA1
- Format: cell-based
- stated conditions: percentage potentiation of GABA EC10 current divided by that of diazepam
Entries and their measured Relative Potentiation for GABAA1 follow.
Answer field: number only, no words.

Below: 3 molecules and their reported Relative Potentiation for GABAA1.
INSERT INTO measurements (molecule, test_value) VALUES
  ('CCCN1Cc2nc3c(-c4c(F)cccc4OC)cccc3c(N)c2C1=O [Example 5]', 0.11),
  ('COc1cccc(F)c1-c1cccc2c(N)c3c(nc12)CN([C@H]1C[C@@H](C)C1)C3=O', 0.054),
  ('COc1ccc(-c2cccc3c(N)c4c(nc23)CN(C2CCC2)C4=O)c(OC)c1 [Example 53]', 0.1);

Moving on to the next molecule.
### Prompt Look up Relative Potentiation for GABAA1 for this molecule: CCN1Cc2nc3c(-c4ccccc4F)c(F)ccc3c(N)c2C1=O
### Response −0.04

###

Consider the following molecules and their measured Relative Potentiation for GABAA2 readings.
- subject of test: GABAA receptor α2β3γ2 (Homo sapiens, UniProt P18507+P47869)
- Construct: expressed in transfected cells; host or cells: Xenopus laevis oocytes injected with cRNA
- measurement notes: Two-electrode voltage-clamp potentiation of GABA EC10 current in Xenopus oocytes, GABAA2
- Assay type: cell-based
- stated conditions: percentage potentiation of GABA EC10 current divided by that of diazepam
The answer should be a number; do not append a unit.

Consider the reported Relative Potentiation for GABAA2 for these molecules:
INSERT INTO assay_data (molecule, measure_name, test_value) VALUES
  ('COc1cc(-c2cccc3c(N)c4c(nc23)CN(C2CCC2)C4=O)c(OC)nn1 [Example 84]', 'Relative Potentiation for GABAA2', 0.42),
  ('COc1ccc(-c2cccc3c(N)c4c(nc23)CN(C2CCC2)C4=O)c(OC)n1 [Example 64]', 'Relative Potentiation for GABAA2', 0.31);

### Prompt Query (molecule): Cc1nn(C)cc1-c1cccc2c(N)c3c(nc12)CN(C1CCC1)C3=O ; field requested: Relative Potentiation for GABAA2
### Response 0.43

### Prompt Please do the same for CCN1Cc2nc3c(-c4ccccc4F)c(F)ccc3c(N)c2C1=O as well.
### Response 0.038

### Prompt What do you get for Cc1cccc(C)c1-c1cccc2c(N)c3c(nc12)CN(C1CC1)C3=O ?
### Response 0.025

### Prompt Next: CCCN1Cc2nc3c(-c4cc(C)ccc4C)cccc3c(N)c2C1=O
### Response 0.2

### Prompt Please do the same for COc1ccc(OC)c(CN2Cc3nc4c(-c5cccnc5OC)cccc4c(N)c3C2=O)c1 [Example 4] as well.
### Response 0.18

### Prompt // query: COc1cnccc1-c1cccc2c(N)c3c(nc12)CN(C1CCC1)C3=O
### Response 0.32

### Prompt Another molecule to look at: COc1cc(F)c(-c2cccc3c(N)c4c(nc23)CN(C2CCC2)C4=O)c(F)c1
### Response 0.13

### Prompt Do the same for Nc1c2c(nc3c(-c4ncccn4)cccc13)CN(C1CCC1)C2=O please
### Response 0.12

Source of measurements: patent US20080318943A1
